Origin of values: paper PMC10303271

# Test system: AMPA
# EXPERIMENT NOTES: PDSP primary binding AMPA
# PARTICULARS: primary binding, 10,000 nM; last figure of the line = mean of the 4 before it
# AMPA, PDSP raw data, mean listing for each entry below

CHEM SMILES	AMPA, PDSP raw data, mean
C[C@H]1N=C(c2ccccc2F)c2cc(-c3ccccc3)ccc2-n2cnc(C(=O)N(C)C)c21	7.77%
CCc1noc(-c2ncn3c2[C@@H](C)N=C(c2ccccc2F)c2cc(-c4ccccc4)ccc2-3)n1	-5.68%
C#Cc1ccc2c(c1)C(c1ccccc1F)=N[C@H](C)c1c(C(=S)N(C)C)ncn1-2	7.77%
CCc1noc(-c2ncn3c2CN=C(c2ccccc2F)c2cc(C4CC4)ccc2-3)n1	-9.33%
C#Cc1ccc2c(c1)C(c1ccccc1Cl)=N[C@H](C)c1c(C(=O)N(C)CC)ncn1-2	-3.32%
C#Cc1ccc2c(c1)C(c1ccccn1)=N[C@@H](C)c1c(C(=O)NC)ncn1-2	-17.23%
C#Cc1ccc2c(c1)C(c1ccccn1)=N[C@@H](C)c1c(C(=O)N(C)C)ncn1-2	-10.56%
CC(C)c1noc(-c2ncn3c2[C@@H](C)N=C(c2ccccc2F)c2cc(Cl)ccc2-3)n1	20.59%

----------
Reported inhibition at 10 µM values for the following compounds.
# TARGET OF ASSAY: M1 (Homo sapiens, UniProt P11229)
# Construct: purchased NIMH Psychoactive Drug Screening Program (PDSP)
# Sequence (P11229 whole entry): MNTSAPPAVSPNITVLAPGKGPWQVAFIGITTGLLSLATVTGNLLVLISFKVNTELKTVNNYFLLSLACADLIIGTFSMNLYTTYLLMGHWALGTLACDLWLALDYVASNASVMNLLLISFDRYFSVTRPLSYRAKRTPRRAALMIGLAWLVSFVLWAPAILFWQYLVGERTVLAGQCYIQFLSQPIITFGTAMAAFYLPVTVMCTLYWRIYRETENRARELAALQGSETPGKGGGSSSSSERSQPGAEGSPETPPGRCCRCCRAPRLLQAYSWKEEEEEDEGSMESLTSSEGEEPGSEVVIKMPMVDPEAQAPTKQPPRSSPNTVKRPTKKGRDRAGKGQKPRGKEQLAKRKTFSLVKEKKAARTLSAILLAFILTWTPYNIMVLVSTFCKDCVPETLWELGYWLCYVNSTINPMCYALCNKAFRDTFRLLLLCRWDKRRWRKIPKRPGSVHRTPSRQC
# EXPERIMENT NOTES: PDSP primary binding M1
# PARTICULARS: primary binding, 10,000 nM; last figure of the line = mean of the 4 before it; read-out: M1, PDSP raw data, mean
# Method: To determine if any off-target receptor-binding effects are present, all the novel ligands were sent to the National Institute of Mental Health (NIMH), Psychoactive Drug Screening Program (PDSP). […] The hERG-binding was also determined. […] The binding of a ligand to a receptor, ion channel, or transporter was determined in the […] of 10 µM of the appropriate reference compound. […] Radioactivity was then counted on a Microbeta counter. […]

CHEM SMILES	TARGET OF ASSAY	inhibition at 10 µM [%]
C#Cc1ccc2c(c1)C(c1ccccn1)=N[C@@H](C)c1c(C(=O)NC)ncn1-2	M1 (Homo sapiens, UniProt P11229)	-12
CC(C)c1noc(-c2ncn3c2[C@@H](C)N=C(c2ccccc2F)c2cc(Cl)ccc2-3)n1	M1 (Homo sapiens, UniProt P11229)	-0.48
CCc1noc(-c2ncn3c2[C@@H](C)N=C(c2ccccc2F)c2cc(-c4ccccc4)ccc2-3)n1	M1 (Homo sapiens, UniProt P11229)	-1.63
C[C@H]1N=C(c2ccccc2F)c2cc(Cl)ccc2-n2cnc(-c3nc(C4CC4)no3)c21	M1 (Homo sapiens, UniProt P11229)	-0.23
C[C@H]1N=C(c2ccccc2F)c2cc(-c3ccccc3)ccc2-n2cnc(C(=O)N(C)C)c21	M1 (Homo sapiens, UniProt P11229)	-1.6
CCc1noc(-c2ncn3c2[C@@H](C)N=C(c2ccccc2F)c2cc(Cl)ccc2-3)n1	M1 (Homo sapiens, UniProt P11229)	-0.27
CCc1noc(-c2ncn3c2[C@@H](C)N=C(c2ccccc2F)c2cc(C4CC4)ccc2-3)n1	M1 (Homo sapiens, UniProt P11229)	0.86
C#Cc1ccc2c(c1)C(c1ccccn1)=N[C@@H](C)c1c(C(=O)N(C)C)ncn1-2	M1 (Homo sapiens, UniProt P11229)	-20
C#Cc1ccc2c(c1)C(c1ccccc1F)=N[C@H](C)c1c(C(=S)N(C)C)ncn1-2	M1 (Homo sapiens, UniProt P11229)	-1.6
C#Cc1ccc2c(c1)C(c1ccccc1Cl)=N[C@H](C)c1c(C(=O)N(C)CC)ncn1-2	M1 (Homo sapiens, UniProt P11229)	4.95
C#Cc1ccc2c(c1)C(c1ccccc1Cl)=N[C@H](C)c1c(C(=O)NC)ncn1-2	M1 (Homo sapiens, UniProt P11229)	-8.29
CCc1noc(-c2ncn3c2CN=C(c2ccccc2F)c2cc(C4CC4)ccc2-3)n1	M1 (Homo sapiens, UniProt P11229)	9.28

----------
Catalogue of inhibition at 10 µM readings, one per entry.
# TARGET OF ASSAY: M2 (Homo sapiens, UniProt P08172)
# Construct: purchased NIMH Psychoactive Drug Screening Program (PDSP)
# Sequence (P08172 whole entry): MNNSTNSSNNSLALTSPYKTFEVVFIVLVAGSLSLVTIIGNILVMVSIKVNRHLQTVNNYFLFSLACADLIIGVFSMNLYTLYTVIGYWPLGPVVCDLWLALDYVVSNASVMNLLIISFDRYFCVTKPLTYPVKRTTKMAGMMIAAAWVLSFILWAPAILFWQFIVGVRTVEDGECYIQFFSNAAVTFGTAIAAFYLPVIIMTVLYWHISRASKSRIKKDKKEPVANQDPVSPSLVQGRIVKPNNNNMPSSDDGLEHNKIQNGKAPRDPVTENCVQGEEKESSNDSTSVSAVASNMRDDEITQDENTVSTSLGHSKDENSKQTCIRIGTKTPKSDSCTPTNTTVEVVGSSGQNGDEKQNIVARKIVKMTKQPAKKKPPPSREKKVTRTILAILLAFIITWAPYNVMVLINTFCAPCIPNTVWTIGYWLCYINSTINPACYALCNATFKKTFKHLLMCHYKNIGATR
# EXPERIMENT NOTES: PDSP primary binding M2
# PARTICULARS: primary binding, 10,000 nM; last figure of the line = mean of the 4 before it; read-out: M2, PDSP raw data, mean

COMPOUND	UNIT LABEL	inhibition at 10 µM
C#Cc1ccc2c(c1)C(c1ccccc1F)=N[C@H](C)c1c(C(=S)N(C)C)ncn1-2 [Compound 33]	%	15.4
C#Cc1ccc2c(c1)C(c1ccccc1Cl)=N[C@H](C)c1c(C(=O)NC)ncn1-2 [Compound 21]	%	0.22
C[C@H]1N=C(c2ccccc2F)c2cc(-c3ccccc3)ccc2-n2cnc(C(=O)N(C)C)c21 [Compound 5]	%	15.4
C[C@H]1N=C(c2ccccc2F)c2cc(Cl)ccc2-n2cnc(-c3nc(C4CC4)no3)c21 [Compound 38]	%	-9.65
C#Cc1ccc2c(c1)C(c1ccccn1)=N[C@@H](C)c1c(C(=O)N(C)C)ncn1-2 [Compound 31]	%	3.03
CCc1noc(-c2ncn3c2[C@@H](C)N=C(c2ccccc2F)c2cc(-c4ccccc4)ccc2-3)n1 [Compound 35]	%	-7.95
C#Cc1ccc2c(c1)C(c1ccccn1)=N[C@@H](C)c1c(C(=O)NC)ncn1-2 [Compound 23]	%	-6.16
CCc1noc(-c2ncn3c2[C@@H](C)N=C(c2ccccc2F)c2cc(Cl)ccc2-3)n1 [Compound 36]	%	-3.62
CC(C)c1noc(-c2ncn3c2[C@@H](C)N=C(c2ccccc2F)c2cc(Cl)ccc2-3)n1 [Compound 37]	%	-19.3
C#Cc1ccc2c(c1)C(c1ccccc1Cl)=N[C@H](C)c1c(C(=O)N(C)CC)ncn1-2 [Compound 29]	%	3.03
CCc1noc(-c2ncn3c2CN=C(c2ccccc2F)c2cc(C4CC4)ccc2-3)n1 [Compound 44]	%	-13.6
CCc1noc(-c2ncn3c2[C@@H](C)N=C(c2ccccc2F)c2cc(C4CC4)ccc2-3)n1 [Compound 46]	%	5.73

----------
# TARGET OF ASSAY: Alpha2C (Homo sapiens)
# Construct: purchased NIMH Psychoactive Drug Screening Program (PDSP)
# Sequence (P18825 1-462): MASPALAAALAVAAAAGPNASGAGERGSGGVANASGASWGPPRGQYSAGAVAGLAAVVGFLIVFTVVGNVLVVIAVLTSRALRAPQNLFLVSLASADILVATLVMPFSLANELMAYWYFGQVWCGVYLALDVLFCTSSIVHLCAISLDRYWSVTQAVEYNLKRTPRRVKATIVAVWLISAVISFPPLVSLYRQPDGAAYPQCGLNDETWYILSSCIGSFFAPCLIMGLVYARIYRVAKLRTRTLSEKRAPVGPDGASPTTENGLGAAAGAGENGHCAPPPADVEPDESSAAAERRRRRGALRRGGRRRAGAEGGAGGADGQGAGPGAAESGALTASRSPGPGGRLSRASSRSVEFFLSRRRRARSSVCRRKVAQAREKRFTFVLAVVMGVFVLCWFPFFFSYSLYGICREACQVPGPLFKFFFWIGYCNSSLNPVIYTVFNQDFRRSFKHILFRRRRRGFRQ
# EXPERIMENT NOTES: PDSP primary binding Alpha2C
# PARTICULARS: 1.5 h; primary binding, 10,000 nM; last figure of the line = mean of the 4 before it; read-out: Alpha2C, PDSP raw data, mean

CHEM SMILES	inhibition at 10 µM
CC(C)c1noc(-c2ncn3c2[C@@H](C)N=C(c2ccccc2F)c2cc(Cl)ccc2-3)n1	2.74%
C#Cc1ccc2c(c1)C(c1ccccn1)=N[C@@H](C)c1c(C(=O)N(C)C)ncn1-2	7.52%
C[C@H]1N=C(c2ccccc2F)c2cc(Cl)ccc2-n2cnc(-c3nc(C4CC4)no3)c21	9.93%
C[C@H]1N=C(c2ccccc2F)c2cc(-c3ccccc3)ccc2-n2cnc(C(=O)N(C)C)c21	12.9%

----------
Measured inhibition at 10 µM accompanies every entry in the list below.
# TARGET OF ASSAY: 5-HT2B (Homo sapiens, UniProt P41595)
# Construct: purchased NIMH Psychoactive Drug Screening Program (PDSP)
# Sequence (P41595 whole entry): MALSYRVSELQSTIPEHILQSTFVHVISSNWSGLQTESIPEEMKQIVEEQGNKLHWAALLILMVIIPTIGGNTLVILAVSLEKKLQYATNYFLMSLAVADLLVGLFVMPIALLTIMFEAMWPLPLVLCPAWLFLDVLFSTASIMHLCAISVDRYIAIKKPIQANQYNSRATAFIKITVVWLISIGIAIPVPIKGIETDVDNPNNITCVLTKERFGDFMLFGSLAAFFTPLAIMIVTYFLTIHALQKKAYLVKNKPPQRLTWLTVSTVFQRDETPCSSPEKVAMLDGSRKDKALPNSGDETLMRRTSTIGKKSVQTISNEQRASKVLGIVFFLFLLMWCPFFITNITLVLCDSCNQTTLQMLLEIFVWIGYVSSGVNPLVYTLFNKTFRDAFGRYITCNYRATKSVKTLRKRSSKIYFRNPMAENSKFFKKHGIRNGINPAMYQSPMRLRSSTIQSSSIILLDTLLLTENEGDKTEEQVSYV
# EXPERIMENT NOTES: PDSP primary binding 5-HT2B
# PARTICULARS: 1.5 h; primary binding, 10,000 nM; last figure of the line = mean of the 4 before it; read-out: 5-HT2B, PDSP raw data, mean

CHEM SMILES	inhibition at 10 µM
C#Cc1ccc2c(c1)C(c1ccccn1)=N[C@@H](C)c1c(C(=O)N(C)C)ncn1-2	-3.38%
C#Cc1ccc2c(c1)C(c1ccccn1)=N[C@@H](C)c1c(C(=O)NC)ncn1-2	-3.33%
C#Cc1ccc2c(c1)C(c1ccccc1Cl)=N[C@H](C)c1c(C(=O)NC)ncn1-2	-5.07%
CCc1noc(-c2ncn3c2[C@@H](C)N=C(c2ccccc2F)c2cc(Cl)ccc2-3)n1	3.47%
